# System: T-47D breast
# protocolNotes: NCI-60 one-dose screen, 48 h (100 = growth as untreated, 0 = no growth, -100 = all killed)
# conditions: 10 µM unless noted
This is part of a sample that, as a whole, favours compounds with a hit. Of some 83,000 tested, about 20% had one in any assay.
Each record here notes measured growth.

compound | growth [%]
Clc1ccc2c(NCCNC34CC5CC(CC(C5)C3)C4)ccnc2c1 | -47.2
Cc1oc(-c2ccccc2)nc1CN[C@@H]1C[C@@H]2C[C@H]([C@H]1C)C2(C)C | 0.388
FC(F)(F)c1cc2c(Cl)ncnc2n1CCN1CCCCC1 | 70.5
O=C(c1ccc(Cl)cc1)C1[C@H](c2ccccc2Cl)[C@@H](c2ccccc2)NC12C(=O)Nc1ccc(Br)cc12 (some centres not stated) | -83.4
COc1ccc(C2=NN(C(=O)[C@H]3[C@@H](c4ccco4)c4sc(=O)[nH]c4S[C@@H]3C)C(c3ccc4ccccc4c3)C2)cc1 (some centres not stated) | 9.22
Cc1cc(N=C(N)c2ccccc2)ccc1OCCCCCCCCn1ccnc1 | 26.4
COc1ccc(N=Nc2c(N)nn3c(N)c(C#N)c(-c4ccc(F)cc4)nc23)cc1 | 55.7
COc1ccc2c(c1)C(Sc1ccc(F)cc1)c1c(nc(N)c(C#N)c1N)O2 (configuration not stated) | 79
COc1ccc2[nH]c(O)c(N=Nc3nc(-c4ccccc4)cs3)c2c1 | 0.04
CN1CCN(CCS(=O)(=O)Nc2cc(-c3ccc4ncnc(Nc5ccc(F)c(Cl)c5)c4c3)cnc2Cl)CC1 | -6.97
O=C(N/N=C/c1ccc(Br)o1)c1[nH]c2ccc(Br)cc2c1-c1ccccc1 | 27.1
CN(C)c1nc(NCCNS(=O)(=O)c2ccc(C(=O)/C=C/c3ccccc3)cc2)nc(N2CCOCC2)n1 | 73.1
